# assay.remarks: LAP4-GFP expression modulators in yeast, confirmation, cell-based, cherry picks, flow cytometry, mother/daughter gates (AID 2271);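 note: ratio of sample to DMSO plate mean so 100% equals DMSO level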
# experimental.context: S. cerevisiae LAP4-GFP strain, 3 h, measured here: daughter cell gate response, at 10 µM, stronger effect = higher value, 100 means same as DMSO control
Here, each record is paired with measured GFP response relative to DMSO data.
Write the answer as a number in %, unit excluded.

{"compound": "OC1(c2ccc(F)cc2)CSC(=Nc2cccnc2)N1Cc1ccco1 (stereo not drawn)", "reading.unit": "%", "GFP response relative to DMSO": 99.7}
{"compound": "COc1cc(NC(=O)c2cc3ccccc3o2)ccc1NC(=O)c1ccco1", "reading.unit": "%", "GFP response relative to DMSO": 97.6}
{"compound": "CC(C(=O)NCCc1ccc(F)cc1)N1CCN(Cc2ccccc2)CC1 (stereo not drawn)", "reading.unit": "%", "GFP response relative to DMSO": 100}
{"compound": "CSc1ccc(/C=N/NC(=O)c2ccc(O)cc2)cc1", "reading.unit": "%", "GFP response relative to DMSO": 97.5}
{"compound": "O=[N+]([O-])c1cccc(/C=N/Nc2ncc(Br)cn2)c1", "reading.unit": "%", "GFP response relative to DMSO": 121}
{"compound": "CC(C)Nc1nc(-c2ccccc2)nnc1-c1ccccc1", "reading.unit": "%", "GFP response relative to DMSO": 102}
{"compound": "O=C(Cc1ccc(Cl)cc1)NNC(=S)NC(=O)c1cccs1", "reading.unit": "%", "GFP response relative to DMSO": 151}
{"compound": "COc1ccccc1-c1nnc(NC(=O)c2ccc(S(=O)(=O)N(C)Cc3ccccc3)cc2)o1", "reading.unit": "%", "GFP response relative to DMSO": 95}

Record request: GFP response relative to DMSO value, item CCCCOc1c(Br)cc(/C=C2\N=C(C)OC2=O)cc1OCC 102

Name the reported GFP response relative to DMSO value associated with the compound Cc1ccc2c(c1)c(/C=C/c1cc[n+](C)cc1)c(C)n2C 194

Look up GFP response relative to DMSO for this compound: N#C/C(=C\c1ccc(N2CCOCC2)o1)c1ccccc1 102

Any idea what GFP response relative to DMSO was measured for CCOC(=O)C1=C(Cc2ccc(F)cc2)C(=O)c2ccccc2C1=O ? 97.9

# query: GFP response relative to DMSO of entry CCN(CC)Cc1csc2ccc(Br)cc12 97.2

* * *

# measured.on: ATP-binding cassette sub-family B member 6 (Homo sapiens)
# assay.remarks: ABCB6 transporter inhibitors, pilot screen, K562-ABCB6 cells, flow cytometry, validation set (AID 588550);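 note: 0% = DMSO wells and 100% = benzethonium chloride 70 µM positive control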
# experimental.context: K562-ABCB6 porphyrin accumulation, 1 h, at 10 µM, stronger effect = higher value
Peptide text beside a SMILES is read from it. * marks the point of attachment. Boc = CC(C)(C)OC(=O)*
property.name: inhibition (%)
Write the value in % as a bare number.

{"molecule": "C[C@]12CC[C@H]3C(=CCc4cc(O)ccc43)[C@@H]1CCC2=O", "inhibition [%]": 4}
{"molecule": "Cc1nc(N[C@@H](Cc2c[nH]c3ccccc23)C(=O)O)c2oc3ccccc3c2n1", "inhibition [%]": 9}

Dear colleague, I am looking for the recorded inhibition of the following molecule: CC1(C)OC2OC(C(=O)N/N=C/c3ccccc3F)C3OC(C)(C)OC3C2O1 (stereo unspecified) 9

Request the reported inhibition associated with CC(C)(C)OC(=O)N1CCCC1C(=O)NC(Cc1ccccc1)C(=O)O (stereo not drawn) (Boc-Pro-Phe-OH; configuration not given here) 10

# input molecule: CC(=O)Oc1cc(C(C)C)c(OCCN(C)C)cc1C ; wanted: its inhibition 10
